Provenance of the data: ChEMBL document CHEMBL1145341

System: OVCAR-3
Experiment: Antiproliferative activity against human OVCAR-3 cell line
Type: functional
measured property: GI50 (nM)

>  <given smiles>
O=C1c2ccccc2-c2c1c1ccccc1c(=O)n2CCNCCCNCCn1c2c(c3ccccc3c1=O)C(=O)c1ccccc1-2

>  <target of assay>
OVCAR-3

>  <measured property>
GI50

>  <test value>
93

$$$$

(I) O=C1c2ccccc2-c2c1c1ccccc1c(=O)n2CCNCCNCCNCCn1c2c(c3ccccc3c1=O)C(=O)c1ccccc1-2
(II) O=C1c2ccccc2-c2c1c1ccccc1c(=O)n2CCCNCCCn1c2c(c3ccccc3c1=O)C(=O)c1ccccc1-2
(III) CC(C)(C)OC(=O)N(CCCCN(CCCn1c2c(c3ccccc3c1=O)C(=O)c1ccccc1-2)C(=O)OC(C)(C)C)CCCn1c2c(c3ccccc3c1=O)C(=O)c1ccccc1-2
(IV) O=C1c2ccccc2-c2c1c1ccccc1c(=O)n2CCCCNCCCn1c2c(c3ccccc3c1=O)C(=O)c1ccccc1-2
(V) O=C1c2ccccc2-c2c1c1ccccc1c(=O)n2CCNCCNCCn1c2c(c3ccccc3c1=O)C(=O)c1ccccc1-2
Rank by GI50 (largest to smallest). Give the order by naming the labels one after another as requested.
III, II, V, I, IV
